These measurements were taken from ChEMBL document CHEMBL1201862.

Test system: T47D
method notes: NCI tumour cell line growth inhibition, 48 h
The source made the active and inactive calls. Rule as the data show it: active = GI50 up to about 1.1 µM and inactive = higher. Where a SMILES comes first, the peptide text is derived from it. The star is where a group is joined. Cbz = O=C(OCc1ccccc1)*
Please go through the items and note down their GI50.

Q: Value lookup for GI50; key = CCOC(=O)CCC(NC(=O)C(Cc1ccccc1)NC(=O)OCc1ccccc1)C(=O)OCC (stereo not drawn) (Cbz-Phe-Glu(OEt)-OEt; configuration not given here)
Result: 16.2 µM (inactive)

Q: Value lookup for GI50; key = `COc1ccc2c(c1)[C@@H](NC(C)=O)CCc1cc(OC)c(OC)c(OC)c1-2`
Result: > 100 µM (inactive)

Q: Value lookup for GI50; key = `CCc1nnc2sc(-c3ccc(-c4ccccc4[N+](=O)[O-])o3)nn12`
Result: 36.3 µM (inactive)

Q: Value lookup for GI50; key = `NC(=O)/C=c1/c2ccccc2n2nc3ccccc3c12`
Result: 7.01 µM (inactive)

Q: Value lookup for GI50; key = `O=c1/c(=C/c2ccc([N+](=O)[O-])o2)sc2n1[C@@H](c1ccc(Cl)cc1)C=C(c1cc(F)c(Cl)cc1Cl)N=2`
Result: 19 µM (inactive)

Q: Value lookup for GI50; key = `O=C(O)c1ccc(N2C=[N+]3C(=Nc4ccccc43)C2)cc1`
Result: > 100 µM (inactive)

Q: Value lookup for GI50; key = `COc1ccc(-n2c(CCCC(=O)O)nc3c2C(=O)c2ccccc2C3=O)cc1`
Result: 88.3 µM (inactive)

Q: Value lookup for GI50; key = O=C1CC(c2ccccc2)n2cccc21 (centres undefined)
Result: > 100 µM (inactive)

Q: Value lookup for GI50; key = `COc1ccc(/C=C/C(=O)C(C)(C)Br)cc1`
Result: 20.8 µM (inactive)

Q: Value lookup for GI50; key = `C[C@@H]1C[C@@]2(O[C@@H]2C)C(=O)O[C@@H]2CCN3CC=C(COC(=O)[C@]1(C)O)[C@H]23`
Result: > 100 µM (inactive)

Q: Value lookup for GI50; key = `O=C1Cc2c(-c3ccccc3)cc(-c3ccccc3)nc2-c2ccccc2N1`
Result: 10.9 µM (inactive)

Q: Value lookup for GI50; key = `O=C(O)c1ccccc1NC(=S)c1ccccc1`
Result: 34.2 µM (inactive)

Q: Value lookup for GI50; key = CC(C(O)c1ccccc1)[N+](=O)[O-] (centres undefined)
Result: 15.5 µM (inactive)

Q: Value lookup for GI50; key = `C[C@H]1C2Cc3cc(O)ccc3[C@@]1(C)CCN2CCc1ccc(N)cc1`
Result: 80.5 µM (inactive)

----------
Test system: OVCAR-3
method notes: NCI tumour cell line growth inhibition, 48 h
Calls of active or inactive are those of the source. No stated cut-off is given here; in the data, active = GI50 up to about 1.1 µM and inactive = higher.
Bench note: report the call from active, inactive

Q: For this compound, state the assay outcome: `CCOC(=O)/C=C(\C(=O)OCC)n1cc(C)c(=O)n(Cc2cnnn2COCCOC(C)=O)c1=O`
Result: inactive

Q: For this compound, state the assay outcome: `O=C1Nc2ccc(Cl)c(I)c2C1=O`
Result: inactive

Q: For this compound, state the assay outcome: `O=C(C[C@@H]1NCCC[C@H]1O)Cn1cnc2cc(Br)c(Cl)cc2c1=O`
Result: active

Q: For this compound, state the assay outcome: `O=S1(=O)c2cc(S(=O)(=O)n3ccnc3)ccc2NC2=NCCCN21`
Result: inactive

Q: For this compound, state the assay outcome: `O=C1Nc2ccccc2/C1=N/Nc1nc(-c2cccc([N+](=O)[O-])c2)cs1`
Result: inactive

----------
Test system: NCI-H522
method notes: NCI tumour cell line growth inhibition, 48 h
The source made the active and inactive calls. Cut-off read from the data, not from the text of the source: active = GI50 up to about 1.1 µM and inactive = higher.
parameter: GI50

Q: Checklist item: GI50 tested on NCI-H522, entry Cc1cc(Cl)ccc1NC(=O)C(=O)C(C(=O)c1ccc2ccccc2c1)C1OC(=O)c2ccccc21 (stereo not given) , value?
Result: 7.06 µM (inactive)

Q: Checklist item: GI50 tested on NCI-H522, entry CC1CCC2(O)C3(C)CC4(O)OC2(C1O)C1(O)C3(O)C(OC(=O)c2ccc[nH]2)C(O)(C(C)C)C41C (stereo not given) , value?
Result: > 100 µM (inactive)

Q: Checklist item: GI50 tested on NCI-H522, entry `Nc1c(C(=O)Nc2ccccc2O)[n+]([O-])c2ccccc2[n+]1[O-]` , value?
Result: 43.4 µM (inactive)

Q: Checklist item: GI50 tested on NCI-H522, entry `Cc1ccc(-n2cnc3c(N/N=C4\SCC(=O)N4c4ccccc4)ncnc32)cc1` , value?
Result: 3.52 µM (inactive)

Q: Checklist item: GI50 tested on NCI-H522, entry `COc1cc2c(cc1Cc1c(F)cccc1Cl)nc(-c1c(F)cccc1Cl)n2Cc1c(F)cccc1Cl` , value?
Result: 16.1 µM (inactive)

Q: Checklist item: GI50 tested on NCI-H522, entry CC1(C)CCC[C@@]2(C)C1C[C@H](O)[C@@]1(C)O[C@@](C)([C@H](O)CO)CCC21 (stereo not given in full) , value?
Result: 25.9 µM (inactive)

Q: Checklist item: GI50 tested on NCI-H522, entry `CN(C)c1ccc(/N=N\c2cccc3ccoc23)cc1` , value?
Result: 35.4 µM (inactive)

Q: Checklist item: GI50 tested on NCI-H522, entry COC(=O)CCC12CCC(=O)C1[C@@H](C(=O)OC)C[C@H]2C(=O)OC (stereo not given in full) , value?
Result: > 100 µM (inactive)

Q: Checklist item: GI50 tested on NCI-H522, entry `COc1ccccc1-c1cc(=O)c2cc(C)c(C)c(C(=O)O)c2o1` , value?
Result: > 100 µM (inactive)

Q: Checklist item: GI50 tested on NCI-H522, entry `CC(C)/C(Cl)=N/OC(NC(=O)Nc1ccc(Cl)c(Cl)c1)(C(F)(F)F)C(F)(F)F` , value?
Result: 1.69 µM (inactive)

Q: Checklist item: GI50 tested on NCI-H522, entry CC(=O)OCC1OC(n2c(N)c(C#N)c(-c3ccccc3)c(C#N)c2=S)C(OC(C)=O)C(OC(C)=O)C1OC(C)=O (stereo not given) , value?
Result: 13 µM (inactive)

Q: Checklist item: GI50 tested on NCI-H522, entry `CO/C(N)=C(C#N)/N=C/c1ccc2ccccc2c1` , value?
Result: > 100 µM (inactive)

Q: Checklist item: GI50 tested on NCI-H522, entry `CCOc1ccc2c(ccc(/C=C/c3cc(C)c4cccnc4c3O)[n+]2C)c1` , value?
Result: 0.583 µM (active)

Q: Checklist item: GI50 tested on NCI-H522, entry `COC(=O)c1cc(-c2ccc3ccccc3c2)nc(O)c1C#N` , value?
Result: > 100 µM (inactive)

Q: Checklist item: GI50 tested on NCI-H522, entry Fc1ccc(/C=C2\COCC3=C2NC(=S)NC3c2ccc(F)cc2)cc1 (stereo not given) , value?
Result: 16.4 µM (inactive)

Q: Checklist item: GI50 tested on NCI-H522, entry `CCN(CC)C(=O)c1c(N2CCOCC2)cc(N(CC)CC)oc1=O` , value?
Result: > 100 µM (inactive)

Q: Checklist item: GI50 tested on NCI-H522, entry `Nc1nc(N)c2ncn(Cc3ccccc3)c2n1` , value?
Result: > 100 µM (inactive)

Q: Checklist item: GI50 tested on NCI-H522, entry `COc1cc2c(cc1OC)C(c1ccccc1CCCCl)=NCC2` , value?
Result: 20.8 µM (inactive)

Q: Checklist item: GI50 tested on NCI-H522, entry `O=C1Nc2ccc(Cl)c(I)c2C1=O` , value?
Result: 17.2 µM (inactive)

Q: Checklist item: GI50 tested on NCI-H522, entry `CC1=C(C(=O)Nc2cc(=O)n(C)c(=O)n2C)C(c2ccc([N+](=O)[O-])cc2)C(C(=O)Nc2cc(=O)n(C)c(=O)n2C)=C(C)N1` , value?
Result: 37.1 µM (inactive)

Q: Checklist item: GI50 tested on NCI-H522, entry `O=C(O)C1(C(=O)O)CC1` , value?
Result: > 100 µM (inactive)

Q: Checklist item: GI50 tested on NCI-H522, entry `COC(=O)C1=CNC(C(=O)OC)=NN1` , value?
Result: > 100 µM (inactive)

Q: Checklist item: GI50 tested on NCI-H522, entry `CN(/N=C/c1ccccc1O)c1ccc2ccccc2n1` , value?
Result: 24.9 µM (inactive)

Q: Checklist item: GI50 tested on NCI-H522, entry `Cn1c(=O)c2c(n(C)c1=O)n1c(=O)c3ccccc3nc1n2C` , value?
Result: 90.4 µM (inactive)

Q: Checklist item: GI50 tested on NCI-H522, entry `Cc1nc(O)c2c3c(sc2n1)CCCC3` , value?
Result: > 100 µM (inactive)

----------
System: UACC-257
method notes: NCI tumour cell line growth inhibition, 48 h
The source made the active and inactive calls. No stated cut-off is given here; in the data, active = GI50 up to about 1.1 µM and inactive = higher.
Please go through the items and note down their GI50.

Q: Value lookup for GI50; key = COc1ccc(NC=O)c(C(O)CCNC(C)=O)c1 (stereo unspecified)
Result: > 100 µM (inactive)

Q: Value lookup for GI50; key = CCC(=O)N(c1ccccc1)C(C)CN1CCC(O)(c2ccccc2)CC1 (stereo unspecified)
Result: > 100 µM (inactive)

Q: Value lookup for GI50; key = `COc1cc2c(cc1OC)C(c1ccccc1CCCCl)=NCC2`
Result: 53.1 µM (inactive)

Q: Value lookup for GI50; key = `CC1(C)CCC(C)(C)c2cc(C(=O)Nc3ccc(C(=O)O)cc3)ccc21`
Result: 28.2 µM (inactive)

Q: Value lookup for GI50; key = C=CC(O)(CBr)CCC(Br)C(C)(C)Cl (stereo unspecified)
Result: > 10 µM (inactive)

Q: Value lookup for GI50; key = `O=P(O)(O)CN1CCNCCN(CP(=O)(O)O)CCNCC1`
Result: 41.8 µM (inactive)

Q: Value lookup for GI50; key = Cc1cc(S(=O)(=O)O)c(NC(=O)C(=O)C2C=CCS2(=O)=O)cc1Cl (stereo unspecified)
Result: > 100 µM (inactive)

Q: Value lookup for GI50; key = `CNC(=O)c1nn[nH]c1Sc1c([N+](=O)[O-])ncn1C`
Result: > 100 µM (inactive)

Q: Value lookup for GI50; key = COc1ccc2[nH]c(C(=O)N3CC(CCl)c4ccc([N+](=O)[O-])cc43)cc2c1 (stereo unspecified)
Result: > 100 µM (inactive)

Q: Value lookup for GI50; key = `CN(C)CCNc1ncnc2nc(-c3ccccc3)c(-c3ccccc3)nc12`
Result: > 100 µM (inactive)

Q: Value lookup for GI50; key = `CC(C)(C)CC(C)(C)N/C(N)=N/O`
Result: 41.4 µM (inactive)
